# SYSTEM TESTED: T1, human FcRn/b2M (human, UniProt P61769 21-119, biotinylated)
# T1 construct: bought recombinant biotinylated protein (ACRO FCM-H82W4 or Immunitrack ITF01); also called hFcRn; hFcRn/hb2M
# T1 sequence (chain, as listed by the source limits assumed, chain 1 of 2): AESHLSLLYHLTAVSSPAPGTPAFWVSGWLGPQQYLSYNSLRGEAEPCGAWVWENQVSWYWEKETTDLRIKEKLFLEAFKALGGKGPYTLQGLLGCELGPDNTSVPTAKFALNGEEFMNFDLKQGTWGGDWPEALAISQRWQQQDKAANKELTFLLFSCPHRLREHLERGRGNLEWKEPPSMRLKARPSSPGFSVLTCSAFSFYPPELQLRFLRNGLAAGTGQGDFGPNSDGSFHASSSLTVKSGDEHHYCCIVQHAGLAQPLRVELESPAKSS
# T1 sequence (P61769 21-119 limits assumed, chain 2 of 2): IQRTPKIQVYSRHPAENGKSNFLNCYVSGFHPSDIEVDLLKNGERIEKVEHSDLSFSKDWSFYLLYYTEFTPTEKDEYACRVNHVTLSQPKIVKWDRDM
# ASSAY: SPR pH 7.4;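 also: surface plasmon resonance kinetics, periplasmic extracts diluted 1:10 flowed over immobilized target at 25 °C, 120 s association then 600–3600 s dissociation, buffer with 150 mM NaCl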
MEASURED PARAMETER: koff (s⁻¹)

T0263018B11 T28P (VHH, name in Kabat numbering, FLAG3-His6 tagged) VHH: EVQLVESGGGVVQPGGSLRLSCAASGFPFSSYAMYWVRQAPGKGLEWVSAISSGGGSTDYADSVKGRFTISRDNSKNTLYLQMNSLRPEDTALYYCAADTLYTSLTWYSYWGQGTLVTVSS: 0.039
T0263018B11 S56H (VHH, name in Kabat numbering, FLAG3-His6 tagged) VHH: EVQLVESGGGVVQPGGSLRLSCAASGFTFSSYAMYWVRQAPGKGLEWVSAISSGGGHTDYADSVKGRFTISRDNSKNTLYLQMNSLRPEDTALYYCAADTLYTSLTWYSYWGQGTLVTVSS: 0.055
T0263018B11 T57L (VHH, name in Kabat numbering, FLAG3-His6 tagged) VHH: EVQLVESGGGVVQPGGSLRLSCAASGFTFSSYAMYWVRQAPGKGLEWVSAISSGGGSLDYADSVKGRFTISRDNSKNTLYLQMNSLRPEDTALYYCAADTLYTSLTWYSYWGQGTLVTVSS: 0.04
T0263018B11 S52aG (VHH, name in Kabat numbering, FLAG3-His6 tagged) VHH: EVQLVESGGGVVQPGGSLRLSCAASGFTFSSYAMYWVRQAPGKGLEWVSAISGGGGSTDYADSVKGRFTISRDNSKNTLYLQMNSLRPEDTALYYCAADTLYTSLTWYSYWGQGTLVTVSS: 0.034
T0263018B11 S31P (VHH, name in Kabat numbering, FLAG3-His6 tagged) VHH: EVQLVESGGGVVQPGGSLRLSCAASGFTFSPYAMYWVRQAPGKGLEWVSAISSGGGSTDYADSVKGRFTISRDNSKNTLYLQMNSLRPEDTALYYCAADTLYTSLTWYSYWGQGTLVTVSS: 0.043
T0263018B11 F27L (VHH, name in Kabat numbering, FLAG3-His6 tagged) VHH: EVQLVESGGGVVQPGGSLRLSCAASGLTFSSYAMYWVRQAPGKGLEWVSAISSGGGSTDYADSVKGRFTISRDNSKNTLYLQMNSLRPEDTALYYCAADTLYTSLTWYSYWGQGTLVTVSS: 0.05
T0263018B11 Y32S (VHH, name in Kabat numbering, FLAG3-His6 tagged) VHH: EVQLVESGGGVVQPGGSLRLSCAASGFTFSSSAMYWVRQAPGKGLEWVSAISSGGGSTDYADSVKGRFTISRDNSKNTLYLQMNSLRPEDTALYYCAADTLYTSLTWYSYWGQGTLVTVSS: 0.19
T0263018B11 F29G (VHH, name in Kabat numbering, FLAG3-His6 tagged) VHH: EVQLVESGGGVVQPGGSLRLSCAASGFTGSSYAMYWVRQAPGKGLEWVSAISSGGGSTDYADSVKGRFTISRDNSKNTLYLQMNSLRPEDTALYYCAADTLYTSLTWYSYWGQGTLVTVSS: 0.15
T0263018B11 G26H (VHH, name in Kabat numbering, FLAG3-His6 tagged) VHH: EVQLVESGGGVVQPGGSLRLSCAASHFTFSSYAMYWVRQAPGKGLEWVSAISSGGGSTDYADSVKGRFTISRDNSKNTLYLQMNSLRPEDTALYYCAADTLYTSLTWYSYWGQGTLVTVSS: 0.034
T0263018B11 S52T (VHH, name in Kabat numbering, FLAG3-His6 tagged) VHH: EVQLVESGGGVVQPGGSLRLSCAASGFTFSSYAMYWVRQAPGKGLEWVSAITSGGGSTDYADSVKGRFTISRDNSKNTLYLQMNSLRPEDTALYYCAADTLYTSLTWYSYWGQGTLVTVSS: 0.045
T0263018B11 F27I (VHH, name in Kabat numbering, FLAG3-His6 tagged) VHH: EVQLVESGGGVVQPGGSLRLSCAASGITFSSYAMYWVRQAPGKGLEWVSAISSGGGSTDYADSVKGRFTISRDNSKNTLYLQMNSLRPEDTALYYCAADTLYTSLTWYSYWGQGTLVTVSS: 0.045
T0263018B11 F27Y (VHH, name in Kabat numbering, FLAG3-His6 tagged) VHH: EVQLVESGGGVVQPGGSLRLSCAASGYTFSSYAMYWVRQAPGKGLEWVSAISSGGGSTDYADSVKGRFTISRDNSKNTLYLQMNSLRPEDTALYYCAADTLYTSLTWYSYWGQGTLVTVSS: 0.054
T0263018B11 S52aM (VHH, name in Kabat numbering, FLAG3-His6 tagged) VHH: EVQLVESGGGVVQPGGSLRLSCAASGFTFSSYAMYWVRQAPGKGLEWVSAISMGGGSTDYADSVKGRFTISRDNSKNTLYLQMNSLRPEDTALYYCAADTLYTSLTWYSYWGQGTLVTVSS: 0.018
T0263018B11 S30E (VHH, name in Kabat numbering, FLAG3-His6 tagged) VHH: EVQLVESGGGVVQPGGSLRLSCAASGFTFESYAMYWVRQAPGKGLEWVSAISSGGGSTDYADSVKGRFTISRDNSKNTLYLQMNSLRPEDTALYYCAADTLYTSLTWYSYWGQGTLVTVSS: 0.071
T0263018B11 S31N (VHH, name in Kabat numbering, FLAG3-His6 tagged) VHH: EVQLVESGGGVVQPGGSLRLSCAASGFTFSNYAMYWVRQAPGKGLEWVSAISSGGGSTDYADSVKGRFTISRDNSKNTLYLQMNSLRPEDTALYYCAADTLYTSLTWYSYWGQGTLVTVSS: 0.17
